Test: MTT dye reduction cytotoxicity assay on parallel uninfected MT-2 cultures
Format: cell-based, human
Settings: human, mt-2 cells
Property: CC50 at 72 h

**Q:** I would be grateful if you could share the reported CC50 at 72 h for Nc1ccn([C@H]2CC[C@@H](CO)O2)c(=O)n1 [ddC, di-deoxycytidine] .
**A:** > 50 µg/mL

* * *

Experiment: MTT dye reduction cytotoxicity assay on parallel uninfected MT-2 cultures
Assay type: cell-based, human
Conditions: human; uninfected MT-2 cells, three days culture; 50% reduction of absorbance at 570 nm in MTT assay; read-out: TC50
Property: CC50 at 72 h (µg/mL)
Give bare numbers, in µg/mL.

**Q:** I would be grateful if you could share the reported CC50 at 72 h for C[C@@H]1C[C@@H]([C@H](O)CC2CC(=O)NC(=O)C2)C(=O)[C@@H](C)C1 [cyclohexamide] .
**A:** 0.45
